Molecular target: T1, CD40 ligand (UniProt P29965 108-261, limits assumed)
T1 construct: Used immobilised, soluble, or biotinylated on streptavidin beads; also called CD154; soluble CD40L
T1 sequence (looked up): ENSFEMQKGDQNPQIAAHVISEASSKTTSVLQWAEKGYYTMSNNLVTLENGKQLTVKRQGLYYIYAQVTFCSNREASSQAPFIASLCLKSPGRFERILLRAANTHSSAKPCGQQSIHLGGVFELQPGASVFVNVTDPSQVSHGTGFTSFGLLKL
Assay: Octet Red label-free (BLI)
Let's look at some binders and their measured Kd.
Just the number in nM, nothing appended.

HPFSIKNVFCIWNFFSVY (Base peptide) [CD40L M1_6] : 24
PPRYNLFFLFRFYCSFRRDYLYF (Base peptide) [CD40L M1_9] : 8
CD40L M8_720 (Base peptide) peptide: RLPETRKAQAALATKYGIYGFCYYHYWFNGRRILESPVDAMLESGEPDFPFMLCWANENWT : 4
LPFVPYRSHVLKYGWFFPVQWSIFAVLPFQYLHRCR (Base peptide) [CD40L M1_18] : 2.3

[ask] Record request: Kd value, item LWRLNEWNYSDAELLSLIEWCIDH (Base peptide) [CD40L M8_721]
[reply] 7

[ask] What value of Kd has been reported for the following binder? PFTWRPTIFWIIQLIVYMRHF (Base peptide; also called CD40L M1-206) [CD40L M7_206]
[reply] 280

[ask] Please give the measured Kd for this binder: CD40L M9_789 (Base peptide) peptide: LLAEQAGTLKSELEAMPLGEYEHAARYVSEVECNWKTFAGNYSECDHCHANHQDWITDIELEESELEVNDYHWILHYTHDEDVEDEMRIHDEHEAKFYYFWPNFT
[reply] 4
